The reported numbers originate from ChEMBL document CHEMBL1138420.

target: 11-beta-hydroxysteroid dehydrogenase type 2 (Homo sapiens, UniProt P80365)
Sequence (P80365 whole entry): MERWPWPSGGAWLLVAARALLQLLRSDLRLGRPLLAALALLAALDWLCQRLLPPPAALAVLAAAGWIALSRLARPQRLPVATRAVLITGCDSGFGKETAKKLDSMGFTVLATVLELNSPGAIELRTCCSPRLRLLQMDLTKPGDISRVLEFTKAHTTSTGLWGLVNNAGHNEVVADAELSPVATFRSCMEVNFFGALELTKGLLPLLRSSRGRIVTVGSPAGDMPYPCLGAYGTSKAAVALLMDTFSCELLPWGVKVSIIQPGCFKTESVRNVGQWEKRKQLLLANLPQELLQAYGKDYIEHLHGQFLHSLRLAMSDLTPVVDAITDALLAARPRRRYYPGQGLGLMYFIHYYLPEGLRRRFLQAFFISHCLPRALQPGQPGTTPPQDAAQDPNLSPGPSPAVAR
pIC50: −log10 of the molar value.
parameterMeasured: pIC50

compoundStructureString	parameterMeasured	result
CC(C)(Oc1ccc(Cl)cc1)C(=O)N[C@H]1C2CC3CC1C[C@](COCC(=O)O)(C3)C2	pIC50	< 4.00

###

target: 11-beta-hydroxysteroid dehydrogenase 1 (Homo sapiens, UniProt P28845); experiment: Inhibition of human 11beta-HSD1 expressed in HEK293 cells by FPIA; assay type: cell-based
Sequence (P28845 whole entry): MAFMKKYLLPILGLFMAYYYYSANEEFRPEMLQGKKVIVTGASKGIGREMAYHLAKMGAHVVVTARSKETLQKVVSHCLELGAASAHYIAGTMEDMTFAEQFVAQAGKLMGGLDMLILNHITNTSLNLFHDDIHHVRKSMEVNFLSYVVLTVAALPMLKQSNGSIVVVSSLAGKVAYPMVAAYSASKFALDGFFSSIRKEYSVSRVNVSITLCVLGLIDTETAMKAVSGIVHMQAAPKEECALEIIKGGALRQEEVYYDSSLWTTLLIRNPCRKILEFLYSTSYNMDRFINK
pIC50: −log10 of the molar value.

compoundStructureString	pIC50
CC(C)(Oc1cccc(Cl)c1)C(=O)N[C@H]1C2CC3CC1C[C@](C(=O)O)(C3)C2	6.72
CC(C)(Oc1ccccc1Cl)C(=O)N[C@H]1C2CC3CC1C[C@](C(=O)NS(C)(=O)=O)(C3)C2	6.13
CC(C)(Oc1ccccc1Cl)C(=O)N[C@H]1C2CC3CC1C[C@](C(=O)O)(C3)C2	7.23
CC(C)(Oc1ccc(Cl)cc1)C(=O)N[C@H]1C2CC3CC1C[C@](C(=O)NCc1ccncc1)(C3)C2	7.04
CC(C)(Oc1ccc(Cl)cc1)C(=O)N[C@H]1C2CC3CC1C[C@](C(=O)NCc1ccc(S(N)(=O)=O)cc1)(C3)C2	6.52
CC(C)(Oc1ccc(Cl)cc1)C(=O)N[C@H]1C2CC3CC1C[C@](COCC(=O)O)(C3)C2	6.17

###

assay: Half life in ob/ob mouse at 5 mg/kg, iv or 10 mg/kg, po; type: ADME, organism-based; details: in vivo
parameterMeasured: half-life (h)

compoundStructureString	readoutNumber
CC(C)(Oc1ccc(Cl)cc1)C(=O)N[C@H]1C2CC3CC1C[C@](C(=O)NCc1ccc(S(N)(=O)=O)cc1)(C3)C2	3.8
CC(C)(Oc1ccccc1Cl)C(=O)N[C@H]1C2CC3CC1C[C@](C(=O)O)(C3)C2	3.9
CC(C)(Oc1ccc(Cl)cc1)C(=O)N[C@H]1C2CC3CC1C[C@](C(N)=O)(C3)C2	0.3

###

assay: Metabolic stability in mouse liver microsome after 30 mins; format: ADME; conditions: liver microsomes, read-out: Stability
Entries and their remaining at 0.5 h

compoundStructureString	remaining at 0.5 h
CC(C)(Oc1ccc(Cl)cc1)C(=O)N[C@H]1C2CC3CC1C[C@](C(=O)O)(C3)C2	89%
CC(C)(Oc1ccc(Cl)cc1)C(=O)N[C@H]1C2CC3CC1C[C@](C(=O)NCc1ccc(C(=O)O)cc1)(C3)C2	94%
CC(C)(Oc1ccc(Cl)cc1)C(=O)N[C@H]1C2CC3CC1C[C@](COCC(=O)O)(C3)C2	100%
COc1ccc(OC(C)(C)C(=O)N[C@H]2C3CC4CC2C[C@](C(N)=O)(C4)C3)cc1	57%
CC(C)(Oc1ccc(F)cc1Cl)C(=O)N[C@H]1C2CC3CC1C[C@](c1nnn[nH]1)(C3)C2	87%
CC(C)(Oc1ccccc1Cl)C(=O)N[C@H]1C2CC3CC1C[C@](C(=O)NS(C)(=O)=O)(C3)C2	94%

###

target: UniProtKB P51661
Sequence (P51661 whole entry): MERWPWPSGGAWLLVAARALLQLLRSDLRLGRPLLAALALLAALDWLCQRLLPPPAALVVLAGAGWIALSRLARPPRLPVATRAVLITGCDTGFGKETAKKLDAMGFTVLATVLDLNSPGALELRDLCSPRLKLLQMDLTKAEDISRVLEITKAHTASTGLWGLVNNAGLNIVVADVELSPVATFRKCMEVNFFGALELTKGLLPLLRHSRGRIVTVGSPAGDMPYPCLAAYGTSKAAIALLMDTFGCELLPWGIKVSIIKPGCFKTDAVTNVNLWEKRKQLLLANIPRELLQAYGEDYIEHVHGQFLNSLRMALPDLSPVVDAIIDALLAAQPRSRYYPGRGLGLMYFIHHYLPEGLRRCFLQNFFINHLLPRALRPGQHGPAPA
pIC50: −log10 of the molar value.
Quick list: pIC50 per entry.
parameterMeasured: pIC50

compoundStructureString	readoutNumber
CC(C)(Oc1ccccc1Cl)C(=O)N[C@H]1C2CC3CC1C[C@](C(=O)NS(C)(=O)=O)(C3)C2	5.92
CC(C)(Oc1ccc(Cl)cc1)C(=O)N[C@H]1C2CC3CC1C[C@](C(=O)NCc1ccc(S(N)(=O)=O)cc1)(C3)C2	4.80
CC(C)(Oc1cccc(Cl)c1)C(=O)N[C@H]1C2CC3CC1C[C@](C(=O)O)(C3)C2	6.27
CC(C)(Oc1ccccc1Cl)C(=O)N[C@H]1C2CC3CC1C[C@](C(=O)O)(C3)C2	6.85
